Please find below pKi data on Melanocortin receptor 4 (Homo sapiens, UniProt P32245) compiled from the literature.
Sequence (P32245 whole entry): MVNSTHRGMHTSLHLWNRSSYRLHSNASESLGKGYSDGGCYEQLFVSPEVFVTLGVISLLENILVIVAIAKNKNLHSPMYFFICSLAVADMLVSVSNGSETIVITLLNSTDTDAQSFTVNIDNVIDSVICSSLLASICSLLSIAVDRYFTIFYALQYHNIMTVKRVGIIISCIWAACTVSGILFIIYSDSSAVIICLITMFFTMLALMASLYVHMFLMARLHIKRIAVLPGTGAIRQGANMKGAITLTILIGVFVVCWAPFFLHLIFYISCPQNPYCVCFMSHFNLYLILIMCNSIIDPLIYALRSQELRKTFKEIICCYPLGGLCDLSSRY
pKi: −log10 of the molar value.
parameter_measured: pKi

Example molecules with recorded pKi:
{"molecule": "Cc1ccc(N2CCN(C(=O)[C@@H]3CN(C4CCOCC4)C[C@H]3c3ccc(Cl)cc3)CC2)c([C@@H](N)C(C)C)c1", "pKi": 7.92}
{"molecule": "Cc1ccc(N2CCN(C(=O)[C@@H]3CN(C(=O)CCCc4ccccc4)C[C@H]3c3ccc(Cl)cc3)CC2)c([C@@H](N)C(C)C)c1", "pKi": 7.00}
{"molecule": "CC(=O)N[C@@H](Cc1ccc(O)cc1)C(=O)N[C@@H](CCCNC(=N)N)C(=O)N[C@H]1CSSC[C@@H](C(N)=O)NC(=O)[C@H](Cc2c[nH]c3ccccc23)NC(=O)[C@H](CCCNC(=N)N)NC(=O)[C@@H](Cc2ccc(F)cc2)NC(=O)[C@H](Cc2c[nH]cn2)NC(=O)[C@H](CCC(=O)O)NC1=O", "pKi": 9.55}
{"molecule": "COc1ccc(C(=O)NCc2cccnc2N2CCN(C(=O)[C@@H](Cc3ccc(Cl)cc3Cl)NC(=O)CCN)CC2)cc1", "pKi": 5.82}
{"molecule": "NCCC(=O)N[C@H](Cc1ccc(Cl)cc1Cl)C(=O)N1CCN(c2ncccc2CNCCO)CC1", "pKi": 6.28}
{"molecule": "COCC(=O)N[C@H]1Cc2ccc(OC)c(c2)Cc2ccc(cc2)Oc2cccc(c2)CN(CCCN2CCN(CCCN)CC2)C1=O", "pKi": 6.41}
{"molecule": "CNCC(=O)N[C@H](Cc1ccc(Cl)cc1Cl)C(=O)N1CCN(c2ccccc2C(O)CC(C)C)CC1 (stereo partly specified)", "pKi": 8.08}
{"molecule": "Cc1nccn1Cc1ccccc1N1CCN(C(=O)[C@@H]2CN(C(C)C)C[C@H]2c2ccc(Cl)cc2)CC1", "pKi": 6.55}
{"molecule": "CNC(=O)[C@H](Cc1ccc2ccccc2c1)NC(=O)[C@H](CCCN=C(N)N)NC(=O)[C@@H](Cc1ccccc1)NC(=O)[C@H](Cc1c[nH]cn1)NC(C)=O", "pKi": 7.54}
{"molecule": "Cc1ccc(N2CCN(C(=O)[C@H]3[C@@H](c4ccc(Cl)cc4)CCN3C(=O)OC(C)C)CC2)c([C@@H](N)C(C)C)c1", "pKi": 7.92}

A = Cc1ccc(N2CCN(C(=O)[C@@H]3CN(Cc4ccccc4)C[C@H]3c3ccc(Cl)cc3)CC2)c([C@@H](N)C(C)C)c1
B = CC(C)CC(O)c1ccccc1N1CCN(C(=O)[C@@H](Cc2ccc(Cl)cc2Cl)NCC2CCOC2)CC1 (stereo partly specified)
Q) Of the two listed items, A and B , which carries the larger pKi figure? Kindly state the label of the option you pick.
A) A
(A: 7.44, B: 7.05)

I = CCC(=O)N1C[C@@H](C(=O)N2CCN(c3ccc(C)cc3[C@@H](NC(=O)CCN(C)C)C(C)C)CC2)[C@H](c2ccc(Cl)cc2)C1
II = CCCn1ccnc1-c1cccc(Cl)c1CCc1cc(Br)ccc1OC
III = CCN(CC)C[C@H](c1ccccc1)N1CCN(C)CC1
IV = CC(=O)N[C@@H](Cc1cnc[nH]1)C(=O)N[C@H](Cc1ccccc1)C(=O)N1C[C@H](OCc2ccc3ccccc3c2)C[C@@H]1CCCN=C(N)N
V = CCCCCN(CCCCC)[C@H](Cc1ccc(Cl)cc1Cl)C(=O)N1CCN(c2ccccc2C(=O)CC(C)C)CC1
Q) Rank descending by pKi. In your reply, arrange the labels in the requested order.
A) I, IV, III, II, V

P = N=C(N)NCCC[C@@H]1NC(=O)[C@@H](Cc2ccccc2)NC(=O)[C@@H]2CCCN2C(=O)CCC(=O)NCCCC[C@@H](C(N)=O)NC(=O)[C@H](Cc2c[nH]c3ccccc23)NC1=O
Q = CCCC(=O)N1C[C@@H](C(=O)N2CCN(c3ccc(C)cc3[C@@H](N)C(C)C)CC2)[C@H](c2ccc(Cl)cc2)C1
Q) Of the two listed items, P and Q , which carries the larger pKi figure? Kindly state the label of the option you pick.
A) Q
(Q: 7.17, P: 6.72)

a = CCN(CC)CC(c1ccccc1F)N1CCN(C(=O)[C@@H](Cc2ccc(Cl)cc2)NC(=O)CC2NCc3ccccc32)CC1 (stereo partly specified)
b = CN(Cc1ccccc1)Cc1ccccc1N1CCN(C(=O)[C@@H](Cc2ccc(Cl)cc2)NC(=O)[C@H]2Cc3ccccc3CN2)CC1
Q) Of the two listed items, a and b , which carries the larger pKi figure? Kindly state the label of the option you pick.
A) a
(a: 8.14, b: 7.08)

A = COC(=O)N1CC[C@H](c2ccc(Cl)cc2)[C@@H]1C(=O)N1CCN(c2ccc(C)cc2[C@@H](N)C(C)C)CC1 (stereo in doubt; form 2)
B = CCN(CC)CCCC(C)N=C(N)NC(=O)c1cccc(F)c1CCc1ccccc1Cl (stereo unspecified)
C = Cc1cc(Cl)ccc1C[C@@H](C)C(=O)N1CCN(c2ccccc2[C@H](N)CC(C)C)CC1
Q) Arrange these 3 molecules in increasing order of pKi. In your reply, arrange the labels in the requested order.
A) B, C, A
(B: 4.59, C: 5.77, A: 7.74)
